Target: TJP1_3, Q07157
Sequence (Q07157 416-512): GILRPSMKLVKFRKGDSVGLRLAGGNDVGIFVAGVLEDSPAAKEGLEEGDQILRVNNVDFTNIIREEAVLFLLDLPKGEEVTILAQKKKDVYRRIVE
Assay: holdup assay
Parameters: key: below the threshold = too weak to quantify, mostly under pKd 3.1 to 4
Conditions: plain residues with an end cap or a label only (N-terminal biotin on a linker: ado-ado)
Assay readout: pKd

| Binder | Assay readout | Assay value |
| --- | --- | --- |
| ATKDKKITTV [EXOC4, Q96A65] | pKd | below the threshold |
| LLQEEWETVM [PTH1R, Q03431] | pKd | below the threshold |
| RSPVATATSC [DUSP5, Q16690] | pKd | below the threshold |
